assay: Particle size distribution of aerosols by laser diffraction, Pari LC Sprint nebulizer
Format: physicochemical
conditions: NAC 60 mg/mL in saline; mean
measured attribute: D10 (µm)
The reply should be a number in µm, with the unit left off.

INPUT: Consider the compound shown here: CC(=O)N[C@@H](CS)C(=O)O [NAC, N-acetylcysteine] What is its recorded D10?
OUTPUT: 1.12
